Hi there, I'd appreciate the recorded nH (Hill slope) for every entry that follows.
# test-system: Canine CCK1: Variant #1 (Canis lupus familiaris, UniProt Q5D0K2, G258S/L413V/V400A)
# Construct: plasmid DNAs containing the respective variant canine CCK1 receptor cDNAs and the wild type cDNA were transiently transfected; expressed in transfected cells; host or cells: HEK-293 cells, transient
# Sequence (Q5D0K2 whole entry G258S/V400A/L413V): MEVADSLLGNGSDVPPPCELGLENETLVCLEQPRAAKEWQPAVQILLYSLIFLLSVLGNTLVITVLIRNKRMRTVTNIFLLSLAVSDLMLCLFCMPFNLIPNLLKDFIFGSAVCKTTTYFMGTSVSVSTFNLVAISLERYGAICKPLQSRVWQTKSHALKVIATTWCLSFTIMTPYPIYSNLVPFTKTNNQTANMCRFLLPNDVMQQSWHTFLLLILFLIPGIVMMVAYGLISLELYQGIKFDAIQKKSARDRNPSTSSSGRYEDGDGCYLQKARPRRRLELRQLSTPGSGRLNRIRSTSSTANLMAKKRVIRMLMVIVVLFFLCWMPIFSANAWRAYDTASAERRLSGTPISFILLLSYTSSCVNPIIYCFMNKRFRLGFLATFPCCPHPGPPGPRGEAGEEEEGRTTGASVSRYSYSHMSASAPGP
# assay-procedure: competition binding at variant #1 canine CCK1 receptor transiently transfected in HEK cells
# run-parameters: Canine CCK1 variant #1, transiently transfected in HEK cells; n = 3, ± s.e. mean

(Q) Tell me its nH (Hill slope) on Canine CCK1: Variant #1 (Canis lupus familiaris, UniProt Q5D0K2, G258S/L413V/V400A): CCCCCN(CCCOC)C(=O)[C@@H](CCC(=O)O)NC(=O)c1ccc(Cl)c(Cl)c1 [dexloxiglumide]
(A) 0.90 ± 0.17

(Q) Specify nH (Hill slope) for "CNc1cccc(NC(=O)N[C@@H]2N=C(c3ccccn3)c3ccccc3N(CC(=O)C(C)(C)C)C2=O)c1" , system Canine CCK1: Variant #1 (Canis lupus familiaris, UniProt Q5D0K2, G258S/L413V/V400A).
(A) 1.14 ± 0.37

(Q) Please report the measured nH (Hill slope) for "Cc1cccc(NC(=O)N[C@@H]2N=C(c3ccccc3)c3ccccc3N(CC(=O)c3ccccc3C)C2=O)c1" tested on Canine CCK1: Variant #1 (Canis lupus familiaris, UniProt Q5D0K2, G258S/L413V/V400A).
(A) 1.39 ± 0.39

(Q) Fill: nH (Hill slope) (Canine CCK1: Variant #1 (Canis lupus familiaris, UniProt Q5D0K2, G258S/L413V/V400A)) for this compound "Cc1cccc(NC(=O)N[C@@H]2N=C(c3ccccc3)c3ccccc3N(C)C2=O)c1"
(A) 1.08 ± 0.33
